# Target Entity: T1, recombinant soluble αvβ6, P06756
# T1 chain 1: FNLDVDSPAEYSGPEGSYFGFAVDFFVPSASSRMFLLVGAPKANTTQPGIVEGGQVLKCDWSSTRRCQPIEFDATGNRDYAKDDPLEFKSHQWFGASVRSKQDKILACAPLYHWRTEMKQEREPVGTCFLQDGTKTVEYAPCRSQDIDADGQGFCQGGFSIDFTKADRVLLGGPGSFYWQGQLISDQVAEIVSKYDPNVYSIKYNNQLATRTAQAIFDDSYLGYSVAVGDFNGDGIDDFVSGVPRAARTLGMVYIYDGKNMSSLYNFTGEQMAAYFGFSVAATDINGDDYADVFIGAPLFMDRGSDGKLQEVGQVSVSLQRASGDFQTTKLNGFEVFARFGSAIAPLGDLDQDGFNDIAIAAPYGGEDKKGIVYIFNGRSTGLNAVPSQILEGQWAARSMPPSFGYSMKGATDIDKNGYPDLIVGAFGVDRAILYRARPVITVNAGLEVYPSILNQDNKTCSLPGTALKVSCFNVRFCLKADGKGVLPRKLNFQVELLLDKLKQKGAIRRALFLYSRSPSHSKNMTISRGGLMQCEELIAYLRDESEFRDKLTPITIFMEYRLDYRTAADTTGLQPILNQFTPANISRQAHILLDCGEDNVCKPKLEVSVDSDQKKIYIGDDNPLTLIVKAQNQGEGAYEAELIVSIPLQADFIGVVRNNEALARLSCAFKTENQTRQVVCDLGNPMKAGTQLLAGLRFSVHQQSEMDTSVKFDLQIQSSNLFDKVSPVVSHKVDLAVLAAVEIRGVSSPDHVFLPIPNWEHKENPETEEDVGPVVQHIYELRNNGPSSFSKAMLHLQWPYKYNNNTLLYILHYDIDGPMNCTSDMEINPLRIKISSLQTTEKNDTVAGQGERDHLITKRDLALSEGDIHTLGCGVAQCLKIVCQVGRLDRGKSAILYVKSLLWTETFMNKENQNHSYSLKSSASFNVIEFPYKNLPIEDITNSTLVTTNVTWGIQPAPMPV
# T1 chain 2: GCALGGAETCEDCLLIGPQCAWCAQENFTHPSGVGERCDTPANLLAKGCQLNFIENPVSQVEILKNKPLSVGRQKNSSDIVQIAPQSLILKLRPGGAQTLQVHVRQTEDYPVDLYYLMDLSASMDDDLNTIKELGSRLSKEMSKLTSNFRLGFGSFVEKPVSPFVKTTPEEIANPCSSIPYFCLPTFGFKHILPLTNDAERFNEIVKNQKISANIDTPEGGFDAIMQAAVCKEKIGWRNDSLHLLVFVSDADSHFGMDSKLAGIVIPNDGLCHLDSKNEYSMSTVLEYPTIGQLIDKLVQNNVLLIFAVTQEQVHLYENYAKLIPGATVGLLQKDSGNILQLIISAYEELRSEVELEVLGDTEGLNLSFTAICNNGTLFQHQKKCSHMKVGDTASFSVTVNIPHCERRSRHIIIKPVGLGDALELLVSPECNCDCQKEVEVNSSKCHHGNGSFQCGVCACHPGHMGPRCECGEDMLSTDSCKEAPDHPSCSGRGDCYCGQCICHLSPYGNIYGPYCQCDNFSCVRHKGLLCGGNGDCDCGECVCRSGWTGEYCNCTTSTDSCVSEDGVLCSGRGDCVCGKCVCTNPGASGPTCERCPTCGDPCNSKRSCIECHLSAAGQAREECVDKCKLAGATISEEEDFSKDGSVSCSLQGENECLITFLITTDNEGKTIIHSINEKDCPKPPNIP
pIC50: −log10 of the molar value.

{"columns": ["Binder", "pIC50"],
 "data": [
  ["VPNLRGDLQVLA (modifications not checked) [DD19]", 7.07]
]}
